Target: HLA-A*11:01
Test: IEDB peptide-MHC binding, purified MHC/competitive/radioactivity; filed as Kd, often an IC50 or EC50 that approximates it; bounds were set here for any values at or beyond the usual limits of such assays
Settings: source organism: Dengue virus 2 Jamaica/1409/1983
MEASURED METRIC: Kd (nM)

>>> observed("MSYSMCTGK")
34.2
>>> observed("ALALGMMVLK")
13.7
>>> observed("VSTVQQLTK")
604
>>> observed("KTVWFVPSIK")
59.2
>>> observed("SMFEPEREK")
1140

----------
Molecular target: HLA-B*51:01
Assay: IEDB peptide-MHC binding, purified MHC/direct/fluorescence; filed as Kd, often an IC50 or EC50 that approximates it; bounds were set here for any values at or beyond the usual limits of such assays
Conditions: source organism: Giardia lamblia ATCC 50803
pKd: −log10 of the molar value.
MEASURED METRIC: pKd

>>> observed("KLRSNALSL")
"≤ 4.70"

----------
Target: HLA-B*18:01
Assay: IEDB peptide-MHC binding, purified MHC/direct/fluorescence; filed as Kd, often an IC50 or EC50 that approximates it; bounds were set here for any values at or beyond the usual limits of such assays
Conditions: source organism: Vibrio vulnificus
MEASURED METRIC: Kd

>>> observed("PHPVVVRTL")
"≥ 20 µM"

----------
# Kd listing for each entry below
Target: HLA-B*58:01
Assay: IEDB peptide-MHC binding, purified MHC/direct/fluorescence; filed as Kd, often an IC50 or EC50 that approximates it; bounds were set here for any values at or beyond the usual limits of such assays
Details: source organism: SARS-CoV1
MEASURED METRIC: Kd (nM)

>>> observed("KQYNVTQAF")
1010
>>> observed("LSDDAVVCY")
300

----------
Target: HLA-B*39:01
Assay: IEDB peptide-MHC binding, purified MHC/competitive/fluorescence; filed as Kd, often an IC50 or EC50 that approximates it; bounds were set here for any values at or beyond the usual limits of such assays
Conditions: source organism: Escherichia coli 536
MEASURED METRIC: Kd

>>> observed("VMAASGAPF")
"≥ 20 µM"

----------
Biological target: HLA-B*51:01
Test: IEDB peptide-MHC binding, purified MHC/direct/fluorescence; filed as Kd, often an IC50 or EC50 that approximates it; bounds were set here for any values at or beyond the usual limits of such assays
Conditions: source organism: human gammaherpesvirus 4
MEASURED METRIC: Kd

>>> observed("HPVGEADYFEY")
"≥ 20 µM"

----------
Biological target: HLA-A*11:01
Experiment: IEDB peptide-MHC binding, purified MHC/competitive/radioactivity; filed as Kd, often an IC50 or EC50 that approximates it; bounds were set here for any values at or beyond the usual limits of such assays
Details: source organism: Mammarenavirus lassaense
pKd: −log10 of the molar value.
# pKd per entry
MEASURED METRIC: pKd

>>> observed("TCQGSEDIK")
4.82
>>> observed("ITFFQEVPH")
6.71

----------
Target: HLA-B*51:01
Assay: IEDB peptide-MHC binding, purified MHC/competitive/fluorescence; filed as Kd, often an IC50 or EC50 that approximates it; bounds were set here for any values at or beyond the usual limits of such assays
Conditions: source organism: Escherichia coli HS
MEASURED METRIC: Kd

>>> observed("ISLWGSLLK")
"≥ 20 µM"

----------
Target: HLA-B*15:01
Experiment: IEDB peptide-MHC binding, purified MHC/competitive/fluorescence; filed as Kd, often an IC50 or EC50 that approximates it; bounds were set here for any values at or beyond the usual limits of such assays
Conditions: source organism: Orthohantavirus sinnombreense
pKd: −log10 of the molar value.
MEASURED METRIC: pKd

>>> observed("YRTLGVFRY")
"≤ 4.70"

----------
Target: HLA-B*39:01
Test: IEDB peptide-MHC binding, purified MHC/direct/fluorescence; filed as Kd, often an IC50 or EC50 that approximates it; bounds were set here for any values at or beyond the usual limits of such assays
Conditions: source organism: Influenza A virus (A/Viet Nam/HN/2004(H5N1))
MEASURED METRIC: Kd (µM)

>>> observed("VHFRNQVKI")
1.56

----------
Target: HLA-A*02:01
Test: IEDB peptide-MHC binding, purified MHC/competitive/fluorescence; filed as Kd, often an IC50 or EC50 that approximates it; bounds were set here for any values at or beyond the usual limits of such assays
Conditions: source organism: Burkholderia vietnamiensis G4
pKd: −log10 of the molar value.
MEASURED METRIC: pKd

>>> observed("GVNDTEAHA")
"≤ 4.70"

----------
Molecular target: HLA-A*02:16
Experiment: IEDB peptide-MHC binding, purified MHC/direct/fluorescence; filed as Kd, often an IC50 or EC50 that approximates it; bounds were set here for any values at or beyond the usual limits of such assays
Conditions: source organism: Influenza A virus (A/ferret/Maryland/P10-UMD/2008(H9N2))
MEASURED METRIC: Kd

>>> observed("NMDKAVKLY")
"≥ 20 µM"

----------
Molecular target: HLA-A*02:01
Test: IEDB peptide-MHC binding, purified MHC/direct/fluorescence; filed as Kd, often an IC50 or EC50 that approximates it; bounds were set here for any values at or beyond the usual limits of such assays
Settings: source organism: Campylobacter jejuni RM1221
MEASURED METRIC: Kd

>>> observed("IYDYLRLLY")
"≥ 20 µM"

----------
Molecular target: HLA-B*58:01
Assay: IEDB peptide-MHC binding, purified MHC/direct/fluorescence; filed as Kd, often an IC50 or EC50 that approximates it; bounds were set here for any values at or beyond the usual limits of such assays
Details: source organism: Toxoplasma gondii
pKd: −log10 of the molar value.
Examples of sequences with documented pKd follow.
MEASURED METRIC: pKd

>>> observed("RATSHVPEF")
"≤ 4.70"
>>> observed("AYMDRKSFK")
"≤ 4.70"

----------
Molecular target: HLA-A*30:01
Assay: IEDB peptide-MHC binding, purified MHC/direct/fluorescence; filed as Kd, often an IC50 or EC50 that approximates it; bounds were set here for any values at or beyond the usual limits of such assays
Settings: source organism: Corynebacterium glutamicum
MEASURED METRIC: Kd (µM)

>>> observed("WPALSSIAA")
7.5

----------
Target: HLA-A*31:01
Assay: IEDB peptide-MHC binding, purified MHC/competitive/radioactivity; filed as Kd, often an IC50 or EC50 that approximates it; bounds were set here for any values at or beyond the usual limits of such assays
Settings: source organism: Mammarenavirus guanaritoense
MEASURED METRIC: Kd

>>> observed("LSYVIGLLPH")
"8940 nM"
>>> observed("KGLGHDFLR")
"0.134 nM"
>>> observed("TNFESFTVK")
"270 nM"

----------
Target: HLA-B*27:05
Assay: IEDB peptide-MHC binding, purified MHC/competitive/fluorescence; filed as Kd, often an IC50 or EC50 that approximates it; bounds were set here for any values at or beyond the usual limits of such assays
Settings: source organism: Candida albicans SC5314
MEASURED METRIC: Kd

>>> observed("RVYNNTARY")
"≥ 20 µM"

----------
Biological target: HLA-A*32:01
Experiment: IEDB peptide-MHC binding, purified MHC/competitive/radioactivity; filed as Kd, often an IC50 or EC50 that approximates it; bounds were set here for any values at or beyond the usual limits of such assays
Settings: source organism: Dengue virus 2 Jamaica/1409/1983
// reported log10 Kd for each item listed
MEASURED METRIC: log10 Kd (log10 of the value in µM)

>>> observed("LTGYGTVTM")
1.19
>>> observed("TELKYSWKTW")
0.63
>>> observed("PITAAAWYLW")
0.23
>>> observed("SGCVVSWKNK")
0.98
>>> observed("RMLINRFTM")
-1.02

----------
Target: HLA-B*08:01
Test: IEDB peptide-MHC binding, purified MHC/direct/fluorescence; filed as Kd, often an IC50 or EC50 that approximates it; bounds were set here for any values at or beyond the usual limits of such assays
Settings: source organism: Yersinia pestis Nepal516
pKd: −log10 of the molar value.
MEASURED METRIC: pKd

>>> observed("ETIFTVLAL")
"≤ 4.70"

----------
Molecular target: HLA-A*03:01
Assay: IEDB peptide-MHC binding, purified MHC/competitive/fluorescence; bounds were set here for any values at or beyond the usual limits of such assays
Conditions: source organism: Vaccinia virus
pIC50: −log10 of the molar value.
MEASURED METRIC: pIC50

>>> observed("AVDRGCLRI")
4.79

----------
Biological target: HLA-B*18:01
Test: IEDB peptide-MHC binding, purified MHC/competitive/fluorescence; filed as Kd, often an IC50 or EC50 that approximates it; bounds were set here for any values at or beyond the usual limits of such assays
Conditions: source organism: Human immunodeficiency virus 1
pKd: −log10 of the molar value.
MEASURED METRIC: pKd

>>> observed("RSLYNTVAVLY")
6.60
